- Test system: SK-MEL-2 melanoma
- EXPERIMENT_DESCRIPTION: NCI tumour cell line growth inhibition, 48 h

{"MOLECULE": "Cc1c2ccncc2c(C)c2c1sc1ccccc12", "TGI": "50.4 µM"}
{"MOLECULE": "CC(=O)/C(Br)=C/c1ccc(Br)o1", "TGI": "23.9 µM"}
{"MOLECULE": "COC1=C2CC(C)CC(OC)C(OC(=O)CN)[C@H](C)/C=C(\\C)C(OC(N)=O)C(OC)/C=C\\C=C(/C)C(=O)NC(=CC1=O)C2=O (stereo partly drawn)", "TGI": "14.7 µM"}
{"MOLECULE": "COc1ccc(O)cc1C(O)c1ccccc1 (stereo not drawn)", "TGI": "> 100 µM"}
{"MOLECULE": "COCN(C)c1nc(N(C)C)nc(N(C)C)n1", "TGI": "> 100 µM"}
{"MOLECULE": "CC(C)(C)OC(=O)[C@@H]1ON2O[C@H](OC3CCCC3(c3ccccc3)c3ccccc3)C[C@H]3OC(=O)[C@@H]1[C@H]32 (stereo partly drawn)", "TGI": "51.8 µM"}
{"MOLECULE": "COc1ccc2c(c1)/C(=C\\c1c(-c3cc(OC)ccc3OC)nc3sccn13)C(=O)N2", "TGI": "4.2 µM"}
{"MOLECULE": "O=C(Nc1cc(F)c(F)cc1C(=O)O)c1ccc(-n2ccnc2)nn1", "TGI": "> 100 µM"}
{"MOLECULE": "CCOC(=O)c1c(C)nc2c(c1N)/C(=C/c1ccccn1)C(=O)N2Cc1ccccc1", "TGI": "3.01 µM"}
{"MOLECULE": "COc1ccc(OC)c(NC(=O)C(=O)CC(=O)c2sc(-n3nc(-c4ccccc4)cc3-c3ccccc3)nc2C)c1", "TGI": "> 100 µM"}
{"MOLECULE": "O=C(CC1C(=O)Nc2ccccc2S1(=O)=O)Nc1ccc(Cl)cc1 (stereo not drawn)", "TGI": "65.3 µM"}
{"MOLECULE": "C=CCN1C[C@H](C)N([C@H](c2ccc(C(=O)N(CC)CC)cc2)c2cccc(OC)c2)C[C@H]1C", "TGI": "> 100 µM"}
{"MOLECULE": "O=[N+]([O-])c1ccc2sc(/C=N/c3ccccn3)cc2c1", "TGI": "> 100 µM"}

----------
TGI for assorted compounds
- Test system: HT29 colon
- EXPERIMENT_DESCRIPTION: NCI tumour cell line growth inhibition, 48 h
PROPERTY_MEASURED: TGI

{"COMPOUND": "CC(O)(C#N)CC(O)(C(F)(F)Cl)C(F)(F)Cl (centres undefined)", "RESULT": "> 10 µM"}
{"COMPOUND": "COc1c(I)c(OC)c2c(c1I)O[C@@H]1OCC[C@H]21", "RESULT": "> 100 µM"}
{"COMPOUND": "O=C(N/C(=C\\c1ccccc1O)c1nc2ccccc2[nH]1)c1ccccc1", "RESULT": "> 100 µM"}
{"COMPOUND": "Cc1cc(S(=O)(=O)Nc2nnc3ccccn23)c(S)cc1Cl", "RESULT": "> 100 µM"}
{"COMPOUND": "C#CC1(O)C(COP(=O)(O)OCC2OC(n3cc(F)c(=O)[nH]c3=O)CC2O)OC(n2ccc(N)nc2=O)C1O (centres undefined)", "RESULT": "> 100 µM"}
{"COMPOUND": "COC(=O)Cc1c([C@H]2[C@H](CC(=O)OC)c3ccccc3N2S(=O)(=O)c2ccc(C)cc2)[nH]c2ccccc12", "RESULT": "> 100 µM"}
{"COMPOUND": "C=CCN1C[C@H](C)N([C@H](c2ccc(C(=O)N(CC)CC)cc2)c2cccc(OC)c2)C[C@H]1C", "RESULT": "> 100 µM"}
{"COMPOUND": "O=C(O)CCCNc1ncc2c(n1)-c1ccccc1OC2", "RESULT": "> 100 µM"}
{"COMPOUND": "CCc1cc2c(O)c(c1)Cc1cc(CC)cc(c1O)Cc1cc(CC)cc(c1O)Cc1cc(CC)cc(c1O)Cc1cc(CC)cc(c1O)Cc1cc(CC)cc(c1O)Cc1cc(CC)cc(c1O)C2", "RESULT": "> 100 µM"}
{"COMPOUND": "CC(=O)Nc1ccc(S(=O)(=O)N=S(C)C)cc1", "RESULT": "> 100 µM"}
{"COMPOUND": "CCCCNC(=S)OCCC(C)CCCC(C)C (centres undefined)", "RESULT": "> 100 µM"}
{"COMPOUND": "Cn1c(=O)c(Oc2ccc(F)cc2F)cc2cnc(N[C@@H]3CCOC3)nc21", "RESULT": "> 25 µM"}
{"COMPOUND": "O=S(=O)(O)c1ccc2c(N=Nc3ccc(S(=O)(=O)O)c4ccccc34)c(O)c(S(=O)(=O)O)cc2c1", "RESULT": "> 100 µM"}
{"COMPOUND": "CC(=O)NNc1nc(C)c(C(=O)NNC(=O)C(=O)Nc2c([N+](=O)[O-])ccc(C)c2C)s1", "RESULT": "> 100 µM"}
{"COMPOUND": "CC1(C)c2ccccc2N2O[C@@H]3C(=O)N(c4ccccc4)C(=O)[C@@H]3C21c1ccccc1 (some centres undefined)", "RESULT": "> 100 µM"}
{"COMPOUND": "CCOC(=O)NN(C(=O)OCC)C(=C(C1=CCCCC1)N1CCOCC1)N(NC(=O)OCC)C(=O)OCC", "RESULT": "> 100 µM"}
{"COMPOUND": "CN1C(=O)C(C(=O)Nc2ccccn2)C2C[C@@]1(C)Oc1ccccc12 (some centres undefined)", "RESULT": "> 100 µM"}
{"COMPOUND": "COc1cc(/C=C(\\NC(=O)c2ccccc2)c2nc3ncncc3[nH]2)cc(OC)c1OC", "RESULT": "> 100 µM"}
{"COMPOUND": "c1ccc(Oc2ccc(Nc3ncc(-c4ccccc4)o3)cc2)cc1", "RESULT": "> 25 µM"}

----------
- Tested on: UO-31 renal
- EXPERIMENT_DESCRIPTION: NCI tumour cell line growth inhibition, 48 h; in the data active means GI50 below about 0.43 µM; inactive means the rest
Classes used: TRUE for active, FALSE for inactive

{"MOLECULE": "O=C(Nc1cc(F)c(F)cc1C(=O)O)c1ccc(-n2ccnc2)nn1", "ASSAY_TARGET": "UO-31 renal", "DISCRETE_LABEL": "FALSE"}
{"MOLECULE": "Fc1ccc(-c2nn3ccccc3c2-c2ccncc2)cc1", "ASSAY_TARGET": "UO-31 renal", "DISCRETE_LABEL": "FALSE"}
{"MOLECULE": "CCN(CC)CCN1c2nc3ccccc3cc2Sc2cc3ccccc3nc21", "ASSAY_TARGET": "UO-31 renal", "DISCRETE_LABEL": "FALSE"}
{"MOLECULE": "C=C1C(=O)O[C@H]2[C@H]1CC/C(COC(=O)/C=C\\C(=O)NCc1ccc(Cn3c(=O)sn(CCI)c3=O)cc1)=C\\CC[C@@]1(C)O[C@@H]21", "ASSAY_TARGET": "UO-31 renal", "DISCRETE_LABEL": "FALSE"}
{"MOLECULE": "COc1cc(-c2nc3ccccc3o2)cc(CN2CCCCC2)c1O", "ASSAY_TARGET": "UO-31 renal", "DISCRETE_LABEL": "FALSE"}
{"MOLECULE": "COc1ccc(-c2cn(-c3ccc(OC)c(OC)c3)c(=O)[nH]2)cc1", "ASSAY_TARGET": "UO-31 renal", "DISCRETE_LABEL": "FALSE"}
{"MOLECULE": "CS(=O)(=O)c1cccc(Nc2ncc3cc(-c4ccccc4Cl)ccc3n2)c1", "ASSAY_TARGET": "UO-31 renal", "DISCRETE_LABEL": "FALSE"}
{"MOLECULE": "COc1ccccc1[As]=[As]c1ccccc1OC (stereo not given)", "ASSAY_TARGET": "UO-31 renal", "DISCRETE_LABEL": "TRUE"}
{"MOLECULE": "O=C(/C=C/c1ccccn1)c1ccc(OCc2nnc(-c3ccc(Cl)cc3)o2)cc1", "ASSAY_TARGET": "UO-31 renal", "DISCRETE_LABEL": "FALSE"}
{"MOLECULE": "N=C(N)c1ccc(-c2ccc(-c3ccc4ccccc4c3)s2)s1", "ASSAY_TARGET": "UO-31 renal", "DISCRETE_LABEL": "FALSE"}

----------
The compounds listed here are annotated with their TGI.
- System: SF-539 CNS
- EXPERIMENT_DESCRIPTION: NCI tumour cell line growth inhibition, 48 h

{"COMPOUND": "O=C(Nc1ccc(Cl)cc1)c1cc([N+](=O)[O-])ccc1O", "TGI": "> 34 µM"}
{"COMPOUND": "CCN(CC)CCN1c2nc3ccccc3cc2Sc2cc3ccccc3nc21", "TGI": "3.16 µM"}
{"COMPOUND": "C[C@]12CC[C@H](O)CC1=CC[C@@H]1C2CC[C@]2(C)C(=O)NC(=O)CC12 (stereo partly drawn)", "TGI": "> 100 µM"}

This collection of values is drawn from PubChem BioAssay (NCI).
